# Experimental Details: growth inhibition of DIPG glioma cells, dose response, cell-based, SU-DIPG-XIII, MIPE4.0, CellTiter-Glo, qHTS (AID 1347061);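 note: cells exposed to compound for 48 hours before readout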
# Measurement Context: SU-DIPG-XIII viability, CellTiter-Glo ATP luminescence
Inconclusive results are not listed. Calls of active or inactive are those of the source. No cut-off is given here; in the data, nearly all actives have AC50 up to about 37 µM.

Compound	AC50
CC(C)(C)[C@]1(O)C[C@@H]2OC(=O)C[C@@]23C(=O)O[C@@H]2OC(=O)[C@H](O)C213 (some centres undefined)	inactive
COc1ccc(C(CN(C)C)C2(O)CCCCC2)cc1 (centres undefined)	inactive
COc1cc2cc(c1Cl)N(C)C(=O)C[C@H](OC(=O)C(C)C)[C@]1(C)O[C@@H]1[C@H](C)[C@@H]1C[C@@](O)(NC(=O)O1)[C@H](OC)/C=C/C=C(\C)C2	inactive
CCCC(C)(COC(N)=O)COC(=O)NC(C)C (centres undefined)	inactive
CC(=O)OCC1=C(C(=O)O)N2C(=O)[C@@H](N)[C@@H]2SC1	inactive
COc1ccc2c(c[n+](C)c3c4cc5c(cc4ccc23)OCO5)c1OC	26.4 µM (active)
COc1ccc2c(c1OC)CN1CCc3cc4c(cc3C1C2)OCO4 (centres undefined)	inactive
CN1C(=O)COc2c(C(=O)NC3CN4CCC3CC4)cc(Cl)cc21 (centres undefined)	inactive
COC1=C[C@@H]2[C@@H]3Cc4ccc(OC)c(O)c4[C@]2(CCN3C)CC1=O	3.32 µM (active)
